The measurements presented in this section are drawn from ChEMBL document CHEMBL1201862.

System: K562
Assay: NCI tumour cell line growth inhibition, 48 h
Structures can show the parent of a compound that is named as a salt. The source made the active and inactive calls. Rule as the data show it: active = GI50 up to about 1.1 µM and inactive = higher.
Assignment: determine reported GI50 for the given compounds.

Query :: // output GI50; input N#Cc1nc(Nc2ccc([N+](=O)[O-])cc2)sc1N ; system K562
Result :: 8.75 µM (inactive)

Query :: // output GI50; input COc1ccc(/C=C2\N=C3Sc4c([nH]cnc4=O)N3C2=O)cc1 ; system K562
Result :: > 100 µM (inactive)

Query :: // output GI50; input O=c1c2ccccc2nc2n1CCc1c-2[nH]c2ccc(Br)cc12 ; system K562
Result :: > 100 µM (inactive)

Query :: // output GI50; input CNC(=O)OCc1nc(SSC(C)(C)C)n(C)c1COC(=O)NC ; system K562
Result :: 1.94 µM (inactive)

Query :: // output GI50; input O=C(O)CC(Cc1ccccc1)C(=O)O (stereo unspecified) ; system K562
Result :: > 100 µM (inactive)

Query :: // output GI50; input CC(=O)Oc1cc2c(=O)oc3c(OC(C)=O)c(OC(C)=O)c(OC(C)=O)c4c(=O)oc(c1OC(C)=O)c2c34 ; system K562
Result :: 53.5 µM (inactive)

Query :: // output GI50; input O=C1C(c2c(O)[nH]c3ccc(S(=O)(=O)O)cc23)=Nc2ccccc21 ; system K562
Result :: > 100 µM (inactive)

Query :: // output GI50; input Cc1nc2c(=O)n(C)c(=O)nc-2n(CCO)c1C ; system K562
Result :: > 100 µM (inactive)

Query :: // output GI50; input O=c1ccn(CC2(CO)CC(Cc3ccccc3)C2)c(=O)[nH]1 (stereo unspecified) ; system K562
Result :: > 100 µM (inactive)

Query :: // output GI50; input CN(N=O)C(=O)NNC(=O)N(C)N=O ; system K562
Result :: 66.1 µM (inactive)

Query :: // output GI50; input CN(C)CCOC(c1ccccc1)c1ccccc1 [DIPHENHYDRAMINE HYDROCHLORIDE] ; system K562
Result :: > 100 µM (inactive)
